Origin of the recorded values: ChEMBL document CHEMBL5223162

# TESTED TARGET: Cytochrome P450 2D6 (Homo sapiens)
# Sequence (P10635 whole entry): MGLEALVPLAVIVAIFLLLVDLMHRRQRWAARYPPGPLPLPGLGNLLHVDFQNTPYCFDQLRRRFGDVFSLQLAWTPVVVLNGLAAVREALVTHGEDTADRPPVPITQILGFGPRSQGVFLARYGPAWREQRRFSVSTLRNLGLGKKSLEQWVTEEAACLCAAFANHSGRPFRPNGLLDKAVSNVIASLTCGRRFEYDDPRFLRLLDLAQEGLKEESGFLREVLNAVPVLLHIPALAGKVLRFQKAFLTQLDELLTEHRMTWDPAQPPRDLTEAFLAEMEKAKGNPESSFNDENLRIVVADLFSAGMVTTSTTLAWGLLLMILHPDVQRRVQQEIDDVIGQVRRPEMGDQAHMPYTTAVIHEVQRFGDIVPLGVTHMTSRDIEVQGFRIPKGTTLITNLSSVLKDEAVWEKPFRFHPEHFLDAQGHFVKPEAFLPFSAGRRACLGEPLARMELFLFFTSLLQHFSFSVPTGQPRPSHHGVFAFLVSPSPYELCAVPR
pIC50: −log10 of the molar value.
QUANTITY KIND: pIC50

SMILES STRING	TESTED TARGET	REPORTED RESULT
Cc1cc(CN2CCC2)cc(F)c1-c1cc2c(-c3cnn(C)c3)n[nH]c2cn1	Cytochrome P450 2D6 (Homo sapiens)	< 4.82

###

# ASSAY SUMMARY: Permeability across apical to basolateral side in human Caco2 cells at 50 uM and measured after 120 mins by LC-MS analysis
# Type: ADME, cell-based
# RECORDED CONDITIONS: Caco-2, read-out: permeability
Classification field: label 1 = Papp A→B at 2 h, 50 µM at or over 0.7 ×10⁻⁶ cm/s; label 0 = Papp A→B at 2 h, 50 µM under 0.7 ×10⁻⁶ cm/s.

MOLECULE	ASSIGNED LABEL
CNCc1cc(F)c(-c2cc3c(-c4cnn(C)c4)n[nH]c3cn2)c(OC)c1	label 0
CNCc1cc(F)c(-c2cc3c(-c4cnn(C)c4)n[nH]c3cn2)c(C(F)(F)F)c1	label 1
CNCc1cc(C)c(-c2cc3c(-c4cnn(C)c4)n[nH]c3cn2)c(F)c1	label 1
Cc1cc(CN2CCC2)cc(F)c1-c1cc2c(-c3cnn(C)c3)n[nH]c2cn1	label 1
CCNCc1cc(C)c(-c2cc3c(-c4cnn(C)c4)n[nH]c3cn2)c(F)c1	label 1
Cc1cc(C2CCCCN2)cc(F)c1-c1cc2c(-c3cnn(C)c3)n[nH]c2cn1 (stereo not drawn)	label 0
CNC(C)c1cc(C)c(-c2cc3c(-c4cnn(C)c4)n[nH]c3cn2)c(F)c1 (stereo not drawn)	label 0
